protocol details: DPPH radical scavenging assay
assay context: at tested concentrations; IC50 not calculated
quantity measured: percentage antioxidant potential

> print(dat)
                                        mol          value
1  CC(=NNc1nc(-c2ccc(F)cc2)cs1)c1cccc(Br)c1  less than 50%
2  Fc1ccc(-c2csc(NN=Cc3ccccc3C(F)(F)F)n2)cc1  less than 50%
3       Fc1ccc(-c2csc(NN=Cc3ccc[nH]3)n2)cc1  less than 50%
4   CC(=NNc1nc(-c2ccc(F)cc2)cs1)c1ccc(F)cc1  less than 50%
5    Oc1ccc(Cl)cc1C=NNc1nc(-c2ccc(F)cc2)cs1  less than 50%
6  Fc1ccc(-c2csc(NN=Cc3cccc(C(F)(F)F)c3)n2)cc1  less than 50%
7       Cc1ccc(C=NNc2nc(-c3ccc(F)cc3)cs2)o1  less than 50%

Data provenance is paper PMC10061536.
